Values compiled from PubChem BioAssay (EPA / NIEHS).

Read-out: Glutamate-cysteine ligase catalytic (GCLC), GCLC (gene 2729)
MEASUREMENT_DESCRIPTION: LTEA_HepaRG_GCLC: Life Technologies and Expression Analysis (LTEA) Assay for Glutamate-cysteine ligase catalytic (GCLC) using HepaRG (AID 2283498)
COND: mRNA level, 48 h; actives raise or lower the signal
Calls of active or inactive are those of the source. Rule for the calls: active = hit-call score of the fitted dose curve at least 0.9, where 1 is the maximum; inactive = score below 0.9.
Possible outcomes: t (active), f (inactive)

INSERT INTO measurements (compound, discrete_label) VALUES
  ('CN(C)[C@@H]1C(=O)C(C(N)=O)=C(O)[C@@]2(O)C(=O)C3=C(O)c4c(O)cccc4[C@@](C)(O)[C@H]3C[C@@H]12', 'f'),
  ('N#CC(Br)Br', 'f'),
  ('CCCCCCCCCCCCCN1CC(C)OC(C)C1 (centres undefined)', 'f'),
  ('CN(C)c1ccc(C(=O)c2ccc(N(C)C)cc2)cc1', 'f'),
  ('C[N+](C)(C)CC1CO1 (centres undefined)', 'f'),
  ('c1ccc(N=Nc2ccccc2)cc1', 'f'),
  ('[As]#[In]', 'f'),
  ('Clc1ccc(C(c2ccc(Cl)cc2)C(Cl)Cl)cc1', 'f'),
  ('CC(C)(OOC(C)(C)c1ccccc1)c1ccccc1', 'f'),
  ('O=[N+]([O-])C(Br)(CO)CO', 'f'),
  ('CC(C)(C)C(O)(CCc1ccc(Cl)cc1)Cn1cncn1 (centres undefined)', 'f'),
  ('Brc1ccc(Oc2ccccc2)cc1', 'f'),
  ('COc1cc(C=O)cc2c1[C@H](COC(N)=O)[C@]1(OC(C)=O)ON2C[C@H]2[C@@H]1N2C(C)=O', 't'),
  ('CCCCCCCCn1sccc1=O', 'f'),
  ('Nc1ccc(N=Nc2ccccc2)cc1', 't'),
  ('ClC1=C(Cl)C2(Cl)C3C(Cl)C=CC3C1(Cl)C2(Cl)Cl (centres undefined)', 'f'),
  ('CC(O)CCO (centres undefined)', 'f'),
  ('CCCCC(CC)COC(=O)c1ccc(C(=O)OCC(CC)CCCC)c(C(=O)OCC(CC)CCCC)c1 (centres undefined)', 'f'),
  ('c1ccc(C2CO2)cc1 (centres undefined)', 'f'),
  ('c1ccc2c(c1)-c1cccc3cccc-2c13', 'f'),
  ('Cc1ccc([N+](=O)[O-])cc1', 'f'),
  ('CC(C)(C)OOC(C)(C)CCC(C)(C)OOC(C)(C)C', 'f'),
  ('C1=Cc2cccc3cccc1c23', 'f'),
  ('c1ccc2c(c1)oc1ccccc12', 'f'),
  ('CCN(CC)N=O', 'f'),
  ('O=[N+]([O-])c1ccc(Oc2ccc(Cl)cc2Cl)cc1', 't'),
  ('CC(C)COC(=O)c1ccccc1C(=O)OCC(C)C', 'f'),
  ('c1ccc(NNc2ccccc2)cc1', 'f'),
  ('Nc1cc(Cl)cc(C(=O)O)c1Cl', 'f'),
  ('C[C@]12C=CC3=C4CCC(=O)C=C4CC[C@H]3[C@@H]1CC[C@@H]2O', 'f'),
  ('CN(C)c1ccccc1', 'f'),
  ('Nc1ccc([N+](=O)[O-])cc1', 'f'),
  ('N#CC(Br)(Br)C(N)=O', 'f'),
  ('[O-][Cl+]O', 'f'),
  ('CCCCCCCCOC(=O)c1ccc(C(=O)OCCCCCCCC)c(C(=O)OCCCCCCCC)c1', 'f'),
  ('CCCCCOC(=O)c1ccccc1C(=O)OCCCCC', 'f'),
  ('CCOc1cccc(C2(N3CCN(c4ccccc4)CC3)CCC(C)CC2)c1 (centres undefined)', 'f'),
  ('O=C(Nc1ccccc1)c1ccccc1I', 't'),
  ('CC(C)(O)c1cnn2c(-c3ccc(F)c(-c4c(F)cccc4C#N)c3)cnc2n1', 'f'),
  ('O=Cc1ccco1', 'f'),
  ('CS(=O)(=O)NC(=O)c1cc(Oc2ccc(C(F)(F)F)cc2Cl)ccc1[N+](=O)[O-]', 'f'),
  ('CC(C)(C)OOC(=O)c1ccccc1', 'f'),
  ('CCC(C)c1ccc(O)cc1 (centres undefined)', 't'),
  ('Oc1ccccc1Cl', 'f'),
  ('Clc1ccc(Cl)c(Cl)c1', 't'),
  ('COC(=O)Nc1nc2ccccc2[nH]1', 'f'),
  ('O=P(OCCCl)(OCCCl)OCCCl', 'f'),
  ('Cc1ccc(N)cc1', 'f'),
  ('CCCSC(=O)N(CCC)CCC', 'f'),
  ('COP(=S)(OC)SCN1C(=O)c2ccccc2C1=O', 'f'),
  ('CO[C@@H]1[C@H](OC(=O)NC(=O)CCl)CC[C@]2(CO2)[C@H]1[C@@]1(C)O[C@@H]1CC=C(C)C', 'f'),
  ('CCC12COCN1COC2', 'f'),
  ('O=C1CCCO1', 't'),
  ('Clc1ccc(C(c2ccc(Cl)cc2)C(Cl)(Cl)Cl)cc1', 'f');

---

MEASUREMENT_DESCRIPTION: CCTE_Shafer_MEA_acute_spike_number: CCTE's Neural Acute Assay for Total Number of Spikes, Shafer Lab (AID 2284008)
Procedure: CCTE_Shafer_MEA_acute assay is conducted using Axion Biosystems 48 well microelectrode array (MEA) plates and Maestro recording system. Each well of the MEA plate contains a grid of 16 microelectrodes embedded in the culture surface. Electrically active cells, such as neurons, can be cultured over the electrodes, and electrical activity in these cells can be recorded extracellularly. […] Data from the assay component CCTE_Shafer_MEA_acute_spike_number was analyzed into 1 assay endpoint. […]
The source made the active and inactive calls. Rule for the calls: active = hit-call score of the fitted dose curve at least 0.9, where 1 is the maximum; inactive = score below 0.9.
Possible outcomes: active, inactive

INSERT INTO results (compound, discrete_label) VALUES
  ('CCCCCCCCn1sccc1=O', 'inactive'),
  ('CC(C)COC(=O)c1ccccc1C(=O)OCC(C)C', 'active'),
  ('ClCCOCCCl', 'inactive'),
  ('CCN(CC)N=O', 'inactive'),
  ('CC(C)(O)c1cnn2c(-c3ccc(F)c(-c4c(F)cccc4C#N)c3)cnc2n1', 'active'),
  ('O=P(OCCCl)(OCCCl)OCCCl', 'inactive'),
  ('O=C(N[C@H](c1ccccc1)[C@@H]1CN2CCC1CC2)c1c(Cl)ccc(C(F)(F)F)c1Cl', 'active');

---

Read-out: Transforming growth factor beta 1 (TGFb1), TGFB1 (gene 7040)
MEASUREMENT_DESCRIPTION: BSK_KF3CT_TGFb1: BioMAP Diversity Plus: KF3CT Assay for Transforming growth factor beta 1 (TGFb1) Biomarker Activity (AID 2283072)
COND: primary human keratinocytes with fibroblasts; actives raise or lower the signal
Active and inactive are the calls of the source. How the source made its calls: active means hit-call score of the fitted dose curve at least 0.9, where 1 is the maximum; inactive means score below 0.9.
Possible outcomes: 1 (yes) (active), 0 (no) (inactive)

INSERT INTO measurements (molecule, discrete_label) VALUES
  ('Nc1ccc(N=Nc2ccccc2)cc1', '0 (no)'),
  ('C1=Cc2cccc3cccc1c23', '0 (no)'),
  ('CN(C)c1ccc(C(=O)c2ccc(N(C)C)cc2)cc1', '1 (yes)'),
  ('CCCSC(=O)N(CCC)CCC', '0 (no)'),
  ('CC(C)(OOC(C)(C)c1ccccc1)c1ccccc1', '0 (no)'),
  ('COc1cc(C=O)cc2c1[C@H](COC(N)=O)[C@]1(OC(C)=O)ON2C[C@H]2[C@@H]1N2C(C)=O', '1 (yes)'),
  ('CCCCCCCCCCCCCN1CC(C)OC(C)C1 (stereo not drawn)', '0 (no)'),
  ('Cc1ccc(N)cc1', '0 (no)'),
  ('ClC1=C(Cl)C2(Cl)C3C(Cl)C=CC3C1(Cl)C2(Cl)Cl (stereo not drawn)', '1 (yes)'),
  ('CN(C)[C@@H]1C(=O)C(C(N)=O)=C(O)[C@@]2(O)C(=O)C3=C(O)c4c(O)cccc4[C@@](C)(O)[C@H]3C[C@@H]12', '0 (no)'),
  ('Cc1ccc([N+](=O)[O-])cc1', '0 (no)'),
  ('OCCCl', '0 (no)'),
  ('CCCCCCCCOC(=O)c1ccc(C(=O)OCCCCCCCC)c(C(=O)OCCCCCCCC)c1', '0 (no)');

---

MEASUREMENT_DESCRIPTION: CEETOX_H295R_OHPREG: CeeTox H295R High-throughput Steroidogenesis Assay for OH-Pregnenolone (OHPREG) (AID 2283434)
COND: actives raise or lower the signal
The source made the active and inactive calls. The calls were made as follows: active = hit-call score of the fitted dose curve at least 0.9, where 1 is the maximum; inactive = score below 0.9.
READOUT_LABEL: AC50

INSERT INTO results (compound, value_observed) VALUES
  ('N#CC(Br)(Br)C(N)=O', 'inactive'),
  ('Nc1ccc(Cc2ccc(N)cc2)cc1', '4.31 µM (active)'),
  ('CCCCCOC(=O)c1ccccc1C(=O)OCCCCC', 'inactive'),
  ('[As]#[In]', 'inactive'),
  ('CC(C)N(Cc1ccccc1)C(=O)C(C)(C)C', 'inactive'),
  ('Nc1ccc(N=Nc2ccccc2)cc1', '50 µM (active)'),
  ('Cc1ccc(N=C=O)cc1N=C=O', 'inactive'),
  ('c1ccc(NNc2ccccc2)cc1', 'inactive');
